measurementProtocol: soluble on expression in E. coli; label from the status in PepcDB or PDB records
assayMetric: soluble on expression in E. coli

{"columns": ["inputSequence", "recordedValue"],
 "data": [
  ["MSLSLPLFYAPDIEQSDRLPDDEAGHILRVLRMQAGDRLRLTDGRGSFFDAVIETADRKSCYVSVCGQESWQKPWRDRITIAIAPTKQSERMEWMLEKLVEIGVDEVVFIESEHSERRRIKAERLERIAISAMKQSLKASFPVIRVNIPIQTVIADTPKAAVRLIAYVDEAVRAEITQGRGYPSDFYHVGQDVLILIGPEGDFSPSEVESALLAGFAPVSLGESRLRTETAGLVACQWIHTLQACYRIGEGHHHHHH", "soluble"],
  ["MATYYSNDFRAGLKIMLDGEPYAVEASEFVKPGKGQAFARVKLRRLLTGTRVEKTFKSTDSAEGADVVDMNLTYLYNDGEFWHFMNNETFEQLSADAKAIGDNAKWLLDQAECIVTLWNGQPISVTPPNFVELEIVDTDPGLKGDTAGTGGKPATLSTGAVVKVPLFVQIGEVIKVDTRSGEYVSRVK", "soluble"]
]}
